# Test: protein stability index of a GFP-peptide fusion (GPS, HEK-293T) (PSI 1-6); higher = more stable;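 note: 24-mer peptide tiles fused after GFP, lentivirally expressed, FACS-sorted into six equal bins by GFP/DsRed ratio, decoded by Illumina sequencing, PSI is the read-weighted mean bin number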
# Condition Parameters: treatment: DMSO; c terminus: a fixed tail appended
Listing: protein stability index of selected sequences

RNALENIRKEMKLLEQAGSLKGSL [CRYL1]    3.32
DKWVNDPHRMDRRLLALIYLAHAS [GOLPH3]    2.63
PGNKGRGQRGNTESKTDGDDTETV [TCF25]    5.57
DIFPELDDILYHVKGMQRIVNQWS [DLC1]    2.42
GLDFLHANCIVHRDLKPENILVTS [CDK4]    2.49
DSHVSSCSEDWVGYQRKCYFISTV [CD69]    2.46
GEGTFGKVVECLDHARGKSQVALK [CLK3]    4.45
DLDANLRKLNSRLFVIRGQPADVF [CRY1]    2.07
ERPAQRDCSFPGLPRHQDQPHHQP [TRAF3IP2]    4.72
AYVSPEILNTTGTYSGKAADVWSL [TRIB1]    2.51

The measured protein stability index associated with VPLGFHYETKYVVLSYLGLLSQEK [BCL2L13] reads 3.25

The measured protein stability index associated with DGKLQLLQKLLSGRSREELDELTG [FEM1A] reads 3.24

The measured protein stability index associated with PRYREDPCKQCKKKYVKGDVSLCR [FBXO34] reads 2.99

====

Listing: protein stability index of selected sequences
# Test: protein stability index of a GFP-peptide fusion (GPS, HEK-293T) (PSI 1-6); higher = more stable
# Condition Parameters: treatment: MLN4924 1 uM, 8 h; c terminus: a fixed tail appended
Enter a number only.

Sample records with protein stability index:
THLILHRDLKTQNILLDKHRMVVK [NEK8]    2.83
ITVTQSHLVIQNLFEGMIWFLVPI [CDS1]    3.24
HARARDQGQPAMEGHCVIQVDVGD [PCDHGC5]    4.58
MLYAKPPPTINGIKGLQRKERLKP [KRT34]    3.43
GAFDSQSTVKDCATIFALSTMTSS [ATL3]    3.19
GDLQDTKENREEARFQDKQYSSHH [CHGB]    5.02

The measured protein stability index associated with VLVHCEAGISRSPTICMAYLMKTK [DUSP5] reads 2.39

The measured protein stability index associated with LRKYSFDGLDLDWEYPGSQGSPAV [CHIT1] reads 2.61

The measured protein stability index associated with IQNSDNDLPVVQGSSSFSLKGYPS [TRIM29] reads 4.07

The measured protein stability index associated with SKNDNGKPDSVGLPPCAVRNLQDL [PCMTD1] reads 4.58

The measured protein stability index associated with LREAEIARIRDEEAQRASFLQNAV [LRRC45] reads 4.43

The measured protein stability index associated with YKPPALKKSNSPGTASSGSSRLPQ [ZC2HC1A] reads 4.51

The measured protein stability index associated with KACNKAVAGEFSEPVTLETPAFMF [FSD1] reads 2.98

====

# Test: protein stability index of a GFP-peptide fusion (GPS, HEK-293T) (PSI 1-6); higher = more stable
# Condition Parameters: treatment: DMSO; c terminus: a fixed tail appended
Listing: protein stability index of selected sequences
Enter a number only.

LDVTVQSFGWSDRAKVKTDDIARI [FAM98B]    2.98

The measured protein stability index associated with SQKLNFREHAKARVDHGAEIITQS [MAP2] reads 3.98

The measured protein stability index associated with LTYGEVRNSKASAYCLDQGAEDGD [GALNT9] reads 5.37

The measured protein stability index associated with DLGLAPRELAERGVRIVSRGRTQL [PCDHGA10] reads 3.75

The measured protein stability index associated with SSLFSVEANSSNSQKNEKALTNIQ [C8orf76] reads 4.93

====

# Test: protein stability index of a GFP-peptide fusion (GPS, HEK-293T) (PSI 1-6); higher = more stable
# Condition Parameters: treatment: DMSO; c terminus: a fixed tail appended
Property Name: protein stability index
Enter a number only.

Sample records with protein stability index:
RPKLSEEQQRIIAILLDAHHKTYD [VDR]    2.58
NGSSEKREVRQFQFTAWPDHGVPE [PTPRD]    4.41
MDMDQDSEEEKELYLNLALHLASD [PDS5B]    3.82

The measured protein stability index associated with LEEVNDEGYTPLMEAAREGHEEMV [ANKRD17] reads 5.49

The measured protein stability index associated with RSLQRGCRALRDPALDSLAYEYER [TRADD] reads 3.13

The measured protein stability index associated with NNIKFKKSSILTRAGEQRKRSQSM [CLCN6] reads 4.06

The measured protein stability index associated with GGDHRYVNNYTNSFGGEWSAPDTM [TRIM29] reads 3.51

The measured protein stability index associated with MSLEGTEKASWLGEQPQFWSKTQV [ELF3] reads 3.31

The measured protein stability index associated with LLVQFVCQEYLARNARIVHLVEET [CPXM2] reads 3.82

The measured protein stability index associated with DEGEEFDDWEDDYDYPEEEQLSGA [EID1] reads 5.39

The measured protein stability index associated with SGESNSAVSTEDLKECLKKQLEFC [LARP4] reads 4.43

The measured protein stability index associated with IFTKKLPHPDLPAEEKEQLLHNDE [USP39] reads 5

====

# Test: protein stability index of a GFP-peptide fusion (GPS, HEK-293T) (PSI 1-6); higher = more stable
# Condition Parameters: treatment: MLN4924 1 uM, 8 h; c terminus: a fixed tail appended
Property Name: protein stability index
Enter a number only.

Sample records with protein stability index:
LIKEGGMPLLRDIIKMATARQETK [ZER1]    2.65
ARIYEETLNILLYEAQDGRGPDNA [KCTD10]    3.04
VERKRLRNRLAATKCRKRKLERIA [JUNB]    4.2
TCPQCHRSLILDDRGLRGFPKNRV [TRIM9]    3.16

The measured protein stability index associated with IGPPSAAAIFKIYLSCLEELMKCQ [TRIP13] reads 2.21

The measured protein stability index associated with DIYKQECSSRPLQKGSHPMCKEHE [TRIM63] reads 4.67

The measured protein stability index associated with EVLDGVEDAEGEEEEEEEEEEEDD [FKBP8] reads 5.69

The measured protein stability index associated with DYFPSEDFYRCGYCKNESGSRSNG [ATE1] reads 3.35

The measured protein stability index associated with DDSKFPIEDTPLVPVSFIFIFTFV [PCDHGA10] reads 2.09

The measured protein stability index associated with KQPPLSTVPADGYILELDDGNGGQ [TRIM9] reads 5.07

The measured protein stability index associated with SHQCAHCEKTFNRKDHLKNHLQTH [PLAGL1] reads 5.04

The measured protein stability index associated with TPMRVALAGTFHYYSCERAKKAMG [NSDHL] reads 2.38

The measured protein stability index associated with LIKKKKEELEAKRLQCPFEQELLR [FAM107A] reads 3.71

====

# Test: protein stability index of a GFP-peptide fusion (GPS, HEK-293T) (PSI 1-6); higher = more stable
# Condition Parameters: treatment: DMSO; c terminus: native
Property Name: protein stability index

Sample records with protein stability index:
FHINQTLREAHFHSLQHRGRPLT [FAM104A]    2.3
HKRISAFRALQHSYLHKDEGNPE [CDK4]    4.15
HQRSSSESYTQSFQSRKPFFSWW [PI4K2A]    3.41

The measured protein stability index associated with IGSCVTNPCGPRSRCGPCNTFGY [KRT33B] reads 2.9

The measured protein stability index associated with SRISHLVLPVQPVSSIEEQGCLF [TOR1AIP2] reads 2.63

The measured protein stability index associated with KISGGPRISYPLLHEWALREGEE [MAGEA6] reads 2.68

The measured protein stability index associated with NPAVRTAAANAAAGAAENAFRAP [SCAMP3] reads 3.08

The measured protein stability index associated with AFRALASAQCPQFGIPRKRLKQS [SPOPL] reads 2.74

The measured protein stability index associated with TLQQFNIKLRPPGAEKPSWLEEQ [ARFIP2] reads 3.55

The measured protein stability index associated with LRVSPDGTAFCSGSWDHTLRVWA [GNB5] reads 2.95

The measured protein stability index associated with MYLKQLAEYRKYIHSRKCRCLVM [RHOBTB3] reads 1.95

The measured protein stability index associated with FKLKPLSNKTATDDTGGKDPRNV [PLD5] reads 4.78

====

# Test: protein stability index of a GFP-peptide fusion (GPS, HEK-293T) (PSI 1-6); higher = more stable
# Condition Parameters: treatment: DMSO; c terminus: a fixed tail appended
Property Name: protein stability index
Enter a number only.

DSMYGECRTYIIHYYLMDDTVEIR [EFHC1]    2.35

The measured protein stability index associated with MIHGRSVLHIVASLIILHLSGATK [NETO1] reads 3.03

The measured protein stability index associated with VCKGLPQHEEICLGLFTLILTEPA [INTS3] reads 2.53
